The origin of these recorded values is ChEMBL document CHEMBL1614630.

- ASSAY: Volume of distribution at steady state in monkey after iv administration
- CONDITION: macaca, in vivo
Outcome: TRUE for Vd of at least 4 L/kg; FALSE for anything lower.

Take a look at these entries with their results.
COMPOUND: Cc1cc(C)c(/C=C2\C(=O)Nc3ccccc32)[nH]1 [SEMAXANIB]
CATEGORY: FALSE
--
COMPOUND: CCOc1cc(Cc2cnc(N)nc2N)cc(OCC)c1-n1cccc1 [EPIROPRIM]
CATEGORY: TRUE
--
COMPOUND: COc1ccc(Cl)cc1[C@]1(F)C(=O)Nc2cc(C(F)(F)F)ccc21 [FLINDOKALNER]
CATEGORY: TRUE

Form field: Vd at least 4 L/kg? Entry: CC1COc2c(N3CCN(C)CC3)c(F)cc3c(=O)c(C(=O)O)cn1c23 (stereo unspecified) [OFLOXACIN]
FALSE

Form field: Vd at least 4 L/kg? Entry: CC#C[C@]1(O)CC[C@H]2[C@@H]3CCC4=CC(=O)CCC4=C3[C@@H](c3ccc(N(C)C)cc3)C[C@@]21C [MIFEPRISTONE]
TRUE

Form field: Vd at least 4 L/kg? Entry: COc1ccc([C@@H]2Sc3ccccc3N(CCN(C)C)C(=O)[C@@H]2OC(C)=O)cc1 [DILTIAZEM]
FALSE

Form field: Vd at least 4 L/kg? Entry: CN(C)CCCN1c2ccccc2Sc2ccc(Cl)cc21 [CHLORPROMAZINE]
TRUE

Form field: Vd at least 4 L/kg? Entry: C[C@H]1NCc2cc(-c3ccc4c(=O)c(C(=O)O)cn(C5CC5)c4c3OC(F)F)ccc21 [GARENOXACIN]
FALSE

Form field: Vd at least 4 L/kg? Entry: "COc1ccc([C@H](CC(=O)O)N2CCN(CCCc3ccc4c(n3)NCCC4)C2=O)cn1"
FALSE

Form field: Vd at least 4 L/kg? Entry: OC(CCN1CCCCC1)(c1ccccc1)C1CC2C=CC1C2 (stereo unspecified) [BIPERIDEN]
FALSE

Form field: Vd at least 4 L/kg? Entry: CCN1CCC[C@H]1CNC(=O)c1c(OC)ccc(Br)c1OC [REMOXIPRIDE]
FALSE

Form field: Vd at least 4 L/kg? Entry: CCC1=C[C@@H]2CN(C1)Cc1c([nH]c3ccccc13)[C@@](C(=O)OC)(c1cc3c(cc1OC)N(C)[C@H]1[C@@](O)(C(=O)OC)[C@H](OC(C)=O)[C@]4(CC)C=CCN5CC[C@]31[C@@H]54)C2 [VINORELBINE]
TRUE

Form field: Vd at least 4 L/kg? Entry: COC(=O)C1=C(C)NC(C)=C(C(=O)OC)C1c1ccccc1[N+](=O)[O-] [NIFEDIPINE]
FALSE

Form field: Vd at least 4 L/kg? Entry: Cc1ncc2n1-c1ccc(Cl)cc1C(c1ccccc1F)=NC2 [MIDAZOLAM]
FALSE

Form field: Vd at least 4 L/kg? Entry: "CCCN1CCC[C@@H](c2cccc(S(C)(=O)=O)c2)C1"
FALSE

Form field: Vd at least 4 L/kg? Entry: O=C(CCCN1CCC(O)(c2ccc(Cl)cc2)CC1)c1ccc(F)cc1 [HALOPERIDOL]
TRUE

----------
- ASSAY: Clearance in dog after iv administration
- CONDITION: in vivo
QUANTITY MEASURED: clearance (mL/min/kg)
Give just the numeric value; mL/min/kg need not be written.

Please review the following examples before continuing.
COMPOUND: Cc1cc(C)c(/C=C2\C(=O)Nc3ccccc32)[nH]1 [SEMAXANIB]
QUANTITY MEASURED: clearance
NUMERIC READOUT: 52

COMPOUND: CCCN1CCC[C@@H](c2cccc(S(C)(=O)=O)c2)C1
QUANTITY MEASURED: clearance
NUMERIC READOUT: 36.7

COMPOUND: CC1COc2c(N3CCN(C)CC3)c(F)cc3c(=O)c(C(=O)O)cn1c23 (centres undefined) [OFLOXACIN]
QUANTITY MEASURED: clearance
NUMERIC READOUT: 2.65

COMPOUND: CCOc1cc(Cc2cnc(N)nc2N)cc(OCC)c1-n1cccc1 [EPIROPRIM]
QUANTITY MEASURED: clearance
NUMERIC READOUT: 10.7

COMPOUND: COc1ccc(Cl)cc1[C@]1(F)C(=O)Nc2cc(C(F)(F)F)ccc21 [FLINDOKALNER]
QUANTITY MEASURED: clearance
NUMERIC READOUT: 3.1

Which clearance is listed for CC#C[C@]1(O)CC[C@H]2[C@@H]3CCC4=CC(=O)CCC4=C3[C@@H](c3ccc(N(C)C)cc3)C[C@@]21C [MIFEPRISTONE] ?
15.6

Which clearance is listed for COc1ccc([C@@H]2Sc3ccccc3N(CCN(C)C)C(=O)[C@@H]2OC(C)=O)cc1 [DILTIAZEM] ?
59

Which clearance is listed for OC(CCN1CCCCC1)(c1ccccc1)C1CC2C=CC1C2 (centres undefined) [BIPERIDEN] ?
27

Which clearance is listed for C[C@H]1NCc2cc(-c3ccc4c(=O)c(C(=O)O)cn(C5CC5)c4c3OC(F)F)ccc21 [GARENOXACIN] ?
2.4

Which clearance is listed for Cc1ncc2n1-c1ccc(Cl)cc1C(c1ccccc1F)=NC2 [MIDAZOLAM] ?
27

Which clearance is listed for CCC1=C[C@@H]2CN(C1)Cc1c([nH]c3ccccc13)[C@@](C(=O)OC)(c1cc3c(cc1OC)N(C)[C@H]1[C@@](O)(C(=O)OC)[C@H](OC(C)=O)[C@]4(CC)C=CCN5CC[C@]31[C@@H]54)C2 [VINORELBINE] ?
20

----------
Reported values of clearance for individual entries
- ASSAY: Clearance in rat after iv administration
- CONDITION: in vivo
Please report the result as a number followed by the unit.

Please review the following examples before continuing.
MOLECULE: COc1ccc(Cl)cc1[C@]1(F)C(=O)Nc2cc(C(F)(F)F)ccc21 [FLINDOKALNER]
QUANTITY MEASURED: clearance
RESULT: 29.9 mL/min/kg
//
MOLECULE: Cc1cc(C)c(/C=C2\C(=O)Nc3ccccc32)[nH]1 [SEMAXANIB]
QUANTITY MEASURED: clearance
RESULT: 45 mL/min/kg
//
MOLECULE: C[C@H]1NCc2cc(-c3ccc4c(=O)c(C(=O)O)cn(C5CC5)c4c3OC(F)F)ccc21 [GARENOXACIN]
QUANTITY MEASURED: clearance
RESULT: 12.1 mL/min/kg
//
MOLECULE: CN(C)CCCN1c2ccccc2Sc2ccc(Cl)cc21 [CHLORPROMAZINE]
QUANTITY MEASURED: clearance
RESULT: 61 mL/min/kg
//
MOLECULE: CCOc1cc(Cc2cnc(N)nc2N)cc(OCC)c1-n1cccc1 [EPIROPRIM]
QUANTITY MEASURED: clearance
RESULT: 45 mL/min/kg
//
MOLECULE: CC#C[C@]1(O)CC[C@H]2[C@@H]3CCC4=CC(=O)CCC4=C3[C@@H](c3ccc(N(C)C)cc3)C[C@@]21C [MIFEPRISTONE]
QUANTITY MEASURED: clearance
RESULT: 50 mL/min/kg
//
MOLECULE: CCN1CCC[C@H]1CNC(=O)c1c(OC)ccc(Br)c1OC [REMOXIPRIDE]
QUANTITY MEASURED: clearance
RESULT: 170 mL/min/kg

Kindly consider the entry below.
Which clearance is listed for Cc1ncc2n1-c1ccc(Cl)cc1C(c1ccccc1F)=NC2 [MIDAZOLAM] ?
67 mL/min/kg

----------
- ASSAY: Clearance in rat after iv administration
- CONDITION: in vivo
QUANTITY MEASURED: clearance (mL/min/kg)
Give just the numeric value; mL/min/kg need not be written.

COMPOUND: CCC1=C[C@@H]2CN(C1)Cc1c([nH]c3ccccc13)[C@@](C(=O)OC)(c1cc3c(cc1OC)N(C)[C@H]1[C@@](O)(C(=O)OC)[C@H](OC(C)=O)[C@]4(CC)C=CCN5CC[C@]31[C@@H]54)C2
UNIT TEXT: mL/min/kg
clearance: 31.7

COMPOUND: COc1ccc([C@@H]2Sc3ccccc3N(CCN(C)C)C(=O)[C@@H]2OC(C)=O)cc1
UNIT TEXT: mL/min/kg
clearance: 82.3

COMPOUND: CCCN1CCC[C@@H](c2cccc(S(C)(=O)=O)c2)C1
UNIT TEXT: mL/min/kg
clearance: 46.7

Kindly consider the entry below.
Which clearance is listed for CC1COc2c(N3CCN(C)CC3)c(F)cc3c(=O)c(C(=O)O)cn1c23 (centres undefined) ?
26.3

----------
- ASSAY: Volume of distribution at steady state in rat after iv administration
- CONDITION: in vivo
QUANTITY MEASURED: Vdss (L/kg)
Give just the numeric value; L/kg need not be written.

Please review the following examples before continuing.
MOLECULE: C[C@H]1NCc2cc(-c3ccc4c(=O)c(C(=O)O)cn(C5CC5)c4c3OC(F)F)ccc21
UNIT TEXT: L/kg
Vdss: 0.9

MOLECULE: COC(=O)C1=C(C)NC(C)=C(C(=O)OC)C1c1ccccc1[N+](=O)[O-]
UNIT TEXT: L/kg
Vdss: 0.13

MOLECULE: CCOc1cc(Cc2cnc(N)nc2N)cc(OCC)c1-n1cccc1 [EPIROPRIM]
UNIT TEXT: L/kg
Vdss: 4.6

MOLECULE: CN(C)CCCN1c2ccccc2Sc2ccc(Cl)cc21
UNIT TEXT: L/kg
Vdss: 29.1

MOLECULE: CC1COc2c(N3CCN(C)CC3)c(F)cc3c(=O)c(C(=O)O)cn1c23 (stereo unspecified)
UNIT TEXT: L/kg
Vdss: 1.66

MOLECULE: Cc1cc(C)c(/C=C2\C(=O)Nc3ccccc32)[nH]1
UNIT TEXT: L/kg
Vdss: 1.6

MOLECULE: OC(CCN1CCCCC1)(c1ccccc1)C1CC2C=CC1C2 (stereo unspecified)
UNIT TEXT: L/kg
Vdss: 14

MOLECULE: CC#C[C@]1(O)CC[C@H]2[C@@H]3CCC4=CC(=O)CCC4=C3[C@@H](c3ccc(N(C)C)cc3)C[C@@]21C
UNIT TEXT: L/kg
Vdss: 4.3

Which Vdss is listed for "Cc1ncc2n1-c1ccc(Cl)cc1C(c1ccccc1F)=NC2" ?
1.6

Which Vdss is listed for "CCC1=C[C@@H]2CN(C1)Cc1c([nH]c3ccccc13)[C@@](C(=O)OC)(c1cc3c(cc1OC)N(C)[C@H]1[C@@](O)(C(=O)OC)[C@H](OC(C)=O)[C@]4(CC)C=CCN5CC[C@]31[C@@H]54)C2" ?
24.4

Which Vdss is listed for "O=C(CCCN1CCC(O)(c2ccc(Cl)cc2)CC1)c1ccc(F)cc1" ?
10.4
